B1: Osa-1-4 twister ribozyme (parent)
chain: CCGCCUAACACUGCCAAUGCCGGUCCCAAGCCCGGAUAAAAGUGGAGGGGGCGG

variants of: B1; assay: self-cleavage, relative activity (ratio to wild type); higher = more cleavage; co-transcriptional
Is self-cleavage at least 0.2? Then Y. If not, N.

Solved entries (count: 3):
QUERY: Can C14G C26G be said to have self-cleavage at or above 0.2?
RESULT: N

QUERY: Also check C15G G50U
RESULT: Y

QUERY: Repeat for the following variant: A41C C20A
RESULT: Y

Next:
QUERY: Is it the case that G44U U12C has self-cleavage reaching or exceeding 0.2?
RESULT: Y

QUERY: Now the variant C11A C26G
RESULT: N

QUERY: Moving on to the next variant: A28G G42U
RESULT: N

QUERY: Try this variant too: A40U C14A
RESULT: N

Ref: the RNAGym collection of RNA variant scans (doi:10.1002/anie.201605470)
